test system: HepG2; experiment: GSK_TCMDC: Percent inhibition of human HepG2 cell line. Test compounds present at 10uM.; type: functional
MEASUREMENT_NAME: Inhibition (%)

Cc1cccc2nc(-c3cccc(-c4ccc(NC(=O)CN5CCOCC5)cc4)c3)[nH]c12 : 59
CCCc1nc2c(N3CC(NC(=O)/C=C/c4ccccc4)C3)cccc2n1C1CC1 : 1
CN1CCN(CCCSc2ccc3c(c2)ncn3-c2cc(OCc3ccccc3C(F)(F)F)c(C(N)=O)s2)CC1.O=CO : 28
Cc1cc(N[C@@H](Cc2ccccc2)C(=O)NCCOc2ccccc2)nc(NCCc2ccc(F)cc2)n1.O=C(O)C(F)(F)F : 5
COc1ccc(NC(=O)Nc2cccc(-c3ccncc3)c2)cc1N1CCN(C)CC1 : 9
O=C(Cc1cc(F)cc(F)c1)NC1CCN(c2ccnc3cc(Cl)ccc23)C1.O=C(O)C(F)(F)F (stereo not drawn) : 13
Cl.O=c1cc(NCCCNCc2cc3ccc(Br)cc3s2)[nH]c2ccccc12 : 18
COc1ccc2nccc([C@@H](O)CN3CCC(NCc4cnc5snnc5c4)C(F)C3)c2c1.Cl (stereo partly drawn) : 13
O=C(Nc1ccc2c(ccn2C2CCCN(Cc3cc(F)cc(F)c3F)CC2)c1)c1ccco1 (stereo not drawn) : 7
Cc1ccc(-n2ncc(C(=O)Nc3cc(Cl)cc(Cl)c3)c2C2CCNCC2)cc1C.Cl : 65
CC[C@H](C)CNC(=O)c1ccnc(-c2ccc(CN3CCC(N4CCCC4)CC3)cc2)c1.O=C(O)C(F)(F)F : 13
O=[N+]([O-])c1ccc(N2CCCN(C(=S)Nc3ccc(F)cc3Br)CC2)nc1 : 4
CC1CN(Cc2cccc(-c3ccc(-c4nc5ccccc5[nH]4)cc3)c2)CC(C)O1.O=C(O)C(F)(F)F (stereo not drawn) : 37
CC(Cc1ccc(NC(=O)c2ccc(CNCCCCc3ccccc3)cc2)cc1)NCCc1cccc(Cl)c1.Cl (stereo not drawn) : 100
Cl.O=c1cc(NCCNCc2cccc(-c3ccccc3)c2)[nH]c2ccccc12 : 0
Cc1cc(N)nc2ccc(-c3cccc(CN)c3)cc12 : 2
Cn1nccc1C(=O)NCCNCc1ccc(-c2ccc(-c3nc4ccccc4[nH]3)s2)cc1.O=C(O)C(F)(F)F : 23
Cc1cccc2nc(-c3cccc(-c4ccc(CN5CCCC5CN)cc4)c3)[nH]c12.O=C(O)C(F)(F)F (stereo not drawn) : 19

###

tested on: Plasmodium falciparum; test: GSK_TCMDC: Inhibition of Plasmodium falciparum 3D7 in whole red blood cells, using parasite LDH activity as an index of growth. Test compounds present at 2uM; format: functional
MEASUREMENT_NAME: Inhibition (%)

CCOc1ccccc1C(=O)N1CCc2cc3nccc(N4CCN5CCC[C@H]5C4)c3cc21 : 100
CCOc1cc(C(=O)NCC2CCN(CC3CCCCC3)CC2)ccc1-c1nc2cc(Cl)ccc2[nH]1 : 98
COc1cc2nccc(Nc3ccc(OCc4ccccc4)cc3)c2cc1OC : 100
C=C[C@H]1CN(CCCCCCC)CC[C@H]1CC(O)Cc1ccnc2cc(O)c(OC)cc12.O=C(O)C(=O)O (stereo partly drawn) : 95
CCCC(=O)Nc1ccc(OCCCN(Cc2ccccc2OC(F)(F)F)c2ccc(C#N)c(C(F)(F)F)c2)cc1 : 94
COc1cc(-c2nc(-c3ccc(C(=O)c4ccc(F)cc4)cc3)c(-c3ccccc3)[nH]2)cc(OC)c1O : 100
CC(C)Sc1nc2c(c(=O)n1Cc1ccco1)C1(CCCC1)Cc1ccccc1-2 : 98
CCc1cn(CCc2ccccc2)c2ccc(C(=O)N[C@@H](Cc3ccccc3)[C@H](O)CNC(C)(C)CCCC(C)C)cc12.O=CO : 98
O=C(Nc1ccc(C(F)(F)F)cc1)c1cccc(S(=O)(=O)NC2CCN(Cc3ccccc3)C2)c1.O=C(O)C(F)(F)F (stereo not drawn) : 88
CCn1ncc(Cl)c1CN(C)S(=O)(=O)c1ccc(Br)cc1 : 90
COc1ccc2nccc([C@@H](O)CN3CCC(NC(=O)C(c4cc5ccccc5o4)N4CCN(c5ccccc5OC)CC4)CC3)c2c1 (stereo partly drawn) : 99
Cc1cccc(OC(C)C(=O)Nc2cc(C(F)(F)F)ccc2N2CCOCC2)c1 (stereo not drawn) : 100
O=C(Nc1cc(C(F)(F)F)cc(C(F)(F)F)c1)c1cc(Cl)ccc1O : 90
Cc1ncsc1CCN1C(=O)CC2(C1=O)C(=O)N(Cc1ccccc1)c1ccc(Cl)cc12 (stereo not drawn) : 86
O=C(O)C(F)(F)F.O=C1CCCN1CCCNCc1ccc(-c2ccc(-c3nc4cc(F)ccc4[nH]3)s2)cc1 : 100
O=C(Nc1ccc2c(c1)CN(Cc1ccc(N3CCCC3)o1)CCC2)c1ccoc1.O=CO : 89
Cc1nccn1CCNC(=O)CN1CCC2(CCC1=O)CC(=O)c1ccccc1O2 (stereo not drawn) : 98
Cc1noc(C)c1-c1ccc2c(Nc3ccc([N+](=O)[O-])cc3)c(C(N)=O)cnc2c1.Cl : 100

###

Each entry below carries its recorded Inhibition.
system: HepG2; experiment: GSK_TCMDC: Percent inhibition of human HepG2 cell line. Test compounds present at 10uM.; format: functional
MEASUREMENT_NAME: Inhibition (%)

CN(CCCN(C)c1cc(NC(=O)c2cccc(F)c2)ccn1)Cc1cccc(O)c1.O=C(O)C(F)(F)F : 0
Cc1ccc(-c2nc3cc(C(=O)NC4CCC(N5CCCc6ccc(C#N)cc6C5)CC4)ccc3[nH]2)cc1 (stereo not given) : 23
O=C(Nc1ccc(-c2nc3ccccc3[nH]2)cc1)c1cnc(Cl)c(Cl)c1 : 11
O=C(Nc1cccc(CN2CCCN(CC3CCCCC3)CC2)c1)c1cc2ccccc2s1.O=C(O)C(F)(F)F : 29
CN(C)CCOc1ccc(N2CCN(CCCCNC(=O)c3ccc(/C=C/c4cc(Cl)cc(Cl)c4)cc3)CC2)cc1 : 97

###

test system: HepG2; assay: GSK_TCMDC: Percent inhibition of human HepG2 cell line. Test compounds present at 10uM.; assay type: functional
Please mark YES if the recorded Inhibition is equal to or greater than 30%, and NO if it falls below.

COc1cc(-c2nc(-c3ccncc3)c(-c3ccc4c(c3)CCC4=NO)[nH]2)ccc1OCCN1CCN(C)CC1.Cl : YES
Cc1cc(NCC(c2ccccc2)c2ccccc2)nc(NCc2ccc(C(F)(F)F)cc2)n1 : NO
Cc1cccc2nc(-c3ccc(-c4cccc(NC(=O)NCc5ccccc5)c4)cc3)[nH]c12 : NO
Cc1[nH]c(C)c(-c2ccc(Oc3ccc(F)cc3)cc2)c(=O)c1Cl : NO
CCCc1ccc(C2CCN(CCCCNC(=O)c3ccc(NC(=O)c4ccc(Cl)cc4)cc3)CC2)cc1 : YES
OC(CN1c2ccccc2Sc2ccccc21)CN(C1CCCCC1)C1CCCCC1 (centres undefined) : YES
COc1ccc(CNCc2ccc(-c3cccc(-c4nc5cc(C(F)(F)F)ccc5[nH]4)c3)cc2)cc1.O=C(O)C(F)(F)F : YES
Cl.N#Cc1ccc2c(c1)CN(CCCCNC(=O)c1ccc(-c3ccccc3)cc1)CC2 : NO
O=C(Nc1ccc2c(c1)CCN(C1CCC1)CC2)c1cn(-c2ccccc2)nc1-c1ccccc1.O=C(O)C(F)(F)F : YES
N#Cc1ccc(-c2cnc3ccc(NCCc4cccnc4)nn23)cc1 : NO
CCOc1cc(CC)ccc1C1CCN(CCN2CCC(CNC(=O)c3ccc(-c4ccc(C#N)cc4)cc3)CC2)CC1 : YES
CCCN1CCc2c(sc3nc(SCC(=O)Nc4ccc(C)cc4)n(-c4ccc(C)cc4)c(=O)c23)C1 : NO
COc1cc(Cc2cnc(N)nc2N)ccc1OCc1cccc(Oc2ccccc2)c1 : NO
CCCC1N=C(N)N=C(N)N1c1ccc(Cl)cc1.Cl (centres undefined) : NO
Cc1cc(N(C)C2CCN(CC3CCCCC3)C2)nc(Nc2ccc(Cl)cc2)n1 (centres undefined) : NO
CC(C)(C)c1ccc(NC(=O)c2cccc(CN3CCCN(Cc4cccc(C#N)c4)CC3)c2)cc1.O=C(O)C(F)(F)F : YES
CCc1ccc(NC(=O)N(CCCN2CCN(C)CC2)Cc2csc(-c3ccc(CNCc4ccccc4)cc3)n2)cc1.O=C(O)C(F)(F)F : NO
Cc1cccc(CNc2nccc3[nH]c4ccccc4c23)c1.O=C(O)C(F)(F)F : NO
Nc1nc(N)c2cc(N(Cc3ccccc3)Cc3ccccc3)ccc2n1 : YES

###

system: Plasmodium falciparum; experiment: GSK_TCMDC: Inhibition of Plasmodium falciparum 3D7 in whole red blood cells, using parasite LDH activity as an index of growth. Test compounds present at 2uM; format: functional
Each entry below carries its recorded Inhibition.
MEASUREMENT_NAME: Inhibition (%)

Cc1cc(NCCCCCCNc2cc(C)nc3c(C)cccc23)c2cccc(C)c2n1.Cl : 100
COc1ccc(NC(=O)/C=C/c2ccccc2Cl)cc1OCCN1CCC(N2CCCCC2)CC1 : 100
Cc1cc(NC2CCCC2)nc(Nc2ccccc2C)n1 : 88
Cc1ccc(S(=O)(=O)NC2=NC(=N)N(OCc3ccc(Cl)c(Cl)c3)C(C)(C)N2)cc1 : 88
O=C(NCc1cccc(OC(F)(F)F)c1)c1cnc2c(c1)nc(-c1c[nH]c(-c3ccccc3)n1)n2CCc1c[nH]cn1 : 99
CCOc1c(OC)ccc2c1CCN(CCN1CCC(CNC(=O)c3ccc(-c4ccc(C#N)cc4)cc3)CC1)C2 : 92
CN1CCN(c2cc(NC(=O)Nc3ccc(-c4ccncc4)c(Cl)c3)ccc2Br)CC1 : 100
N#Cc1c(N)nc(SCC(=O)Nc2cc(C(F)(F)F)ccc2Cl)c(C#N)c1-c1cccs1 : 90
Cc1onc(-c2c(Cl)cccc2Cl)c1C(=O)N1CCc2cc3nccc(N4CCN5CCC[C@H]5C4)c3cc21 : 100
